- Tested on: U2OS
- test.name: Incucyte cell viability with U2OS; also: unitless GR value; below 1 slowed growth and below 0 cell loss
- Format: toxicity, cell-based
- conditions: human, 24 h, 10 µM, compound concentration 10 uM, replicate number 1, timepoint 24 hours
Recorded Growth Rate by entry
Give the figure by itself; no unit, no explanation.

As a guide, the following entries are already answered.
Cl.O=C1CC[C@@]2(O)[C@H]3Cc4ccc(O)c5c4[C@@]2(CCN3CC2CC2)[C@H]1O5 [NALTREXONE HYDROCHLORIDE]
0.83
Cc1sc2c(c1C)C(c1ccc(Cl)cc1)=N[C@H](CC(=O)OC(C)(C)C)c1nnc(C)n1-2
0.92
CN(c1ncccc1CNc1ccnc(-c2nc3c(F)c(Cl)ccc3[nH]2)n1)S(C)(=O)=O
0.78
NC(=O)c1cc2c(-c3ccc(C(=O)NCc4ccnc(Cl)c4)s3)cccc2s1
-0.11
CN1CCN(c2ccc(Nc3c4ccccc4nc4ccccc34)cc2)CC1.Cl.Cl.O
-0.28
O=C(O)COc1cccc(-c2ocnc2-c2nc(-c3ccccc3)c(-c3ccccc3)o2)c1
1
CCCCCCCCCCCCC/C=C/[C@@H](O)[C@@H](N)COP(=O)([O-])OCC[N+](C)(C)C [SPHINGOSYLPHOSPHORYLCHLOLINE]
0.9
CCCCC/C=C\C/C=C\C/C=C\C/C=C\CCCC(=O)OC(CO)CO [2-ARACHIDONOYLGLYCEROL]
0.81
CC[C@@]1(O)C(=O)OCc2c1cc1n(c2=O)Cc2cc3ccccc3nc2-1 [CAMPTOTHECIN]
0.48
CCCCCCCCc1ccc(CCC(N)(CO)CO)cc1 [FINGOLIMOD]
0.13

## Task Complete the entry with Growth Rate for CCc1cc2cc(NS(=O)(=O)c3ccc(C#N)cc3)ccc2n(CC)c1=O
## Result 0.96
